Conditions: PAMPA

>  <COMPOUND STRUCTURE>
NCCOc1ccc(Cl)cc1C(=O)Nc1ccc([N+](=O)[O-])cc1Cl

>  <permeability>
1023 10^-6 cm/s

$$$$
>  <COMPOUND STRUCTURE>
O=C(Nc1ccccc1Cl)c1cc(Cl)ccc1O

>  <permeability>
118 10^-6 cm/s

$$$$
>  <COMPOUND STRUCTURE>
COc1ccc(Cl)cc1C(=O)Nc1ccc([N+](=O)[O-])cc1Cl

>  <permeability>
1007 10^-6 cm/s

$$$$
>  <COMPOUND STRUCTURE>
O=C(Nc1ccc(F)cc1)c1cc(Cl)ccc1O

>  <permeability>
390.8 10^-6 cm/s

$$$$
>  <COMPOUND STRUCTURE>
O=C(Nc1ccc([N+](=O)[O-])cc1Cl)c1cc(Cl)ccc1NS(=O)(=O)c1ccccc1

>  <permeability>
2250 10^-6 cm/s

$$$$
>  <COMPOUND STRUCTURE>
O=C(Nc1ccc([N+](=O)[O-])cc1Cl)c1cccc2cc[nH]c12

>  <permeability>
1763 10^-6 cm/s

$$$$
>  <COMPOUND STRUCTURE>
O=C(Nc1ccc([N+](=O)[O-])cc1)c1cc(Cl)ccc1O

>  <permeability>
127.1 10^-6 cm/s

$$$$

Origin of the recorded values: ChEMBL document CHEMBL4819045
